# MEASUREMENT_DESCRIPTION: AUC (0 to 24 hrs) in rat at 100 mg/kg, po measured on day 4
# Format: ADME, organism-based
# MEASUREMENT_CONTEXT: in vivo, time 4 day
This listing pairs compounds with measured AUC at 96 h.

[
  {
    "QUERY_SMILES": "Cc1nc(CC2CCN(c3ccc(-c4ccc(C[C@@H](C)O)cc4)cc3)CC2)nc(C(=O)NCC(=O)O)c1O",
    "AUC at 96 h": "197 µg·h/mL"
  }
]

Ask: Which AUC at 96 h reading was recorded for the compound `Cc1nc(CC2CCN(c3ccc(-c4ccc(C[C@H](C)O)cc4)cc3)CC2)nc(C(=O)NCC(=O)O)c1O` ?
Result: 162 µg·h/mL

* * *

# MEASUREMENT_DESCRIPTION: Cmax in rat at 3 mg/kg, po measured on day 4
# Type: ADME, organism-based
# MEASUREMENT_CONTEXT: in vivo, time 4 day
ASSAY_METRIC: Cmax (ng/mL)
Respond numerically; units are ng/mL and should not be typed.

Ask: Which Cmax reading was recorded for the molecule `Cc1nc(CC2CCN(c3ccc(-c4ccc(C[C@H](C)O)cc4)cc3)CC2)nc(C(=O)NCC(=O)O)c1O` ?
Result: 860

* * *

# MEASUREMENT_DESCRIPTION: AUC in rat at 3 mg/kg, po measured on day 4
# Format: ADME, organism-based
# MEASUREMENT_CONTEXT: in vivo, time 4 day
ASSAY_METRIC: AUC at 96 h (ng·h/mL)
Respond numerically; units are ng·h/mL and should not be typed.

Ask: Which AUC at 96 h reading was recorded for the compound `Cc1nc(CC2CCN(c3ccc(-c4ccc(C[C@H](C)O)cc4)cc3)CC2)nc(C(=O)NCC(=O)O)c1O` ?
Result: 4320

* * *

# MEASUREMENT_DESCRIPTION: cells
# MEASUREMENT_CONTEXT: Homo sapiens, Hep3B
# Description: Induction of EPO production in human Hep3B cells
ASSAY_METRIC: EC50 (µM)
Respond numerically; units are µM and should not be typed.

[
  {
    "COMPOUND": "Cc1nc(CC2CCN(c3ccc(-c4ccc(C(C)(C)CO)cc4)cc3)CC2)nc(C(=O)NCC(=O)O)c1O",
    "UNIT_SPEC": "µM",
    "EC50": 0.84
  },
  {
    "COMPOUND": "Cc1nc(Cc2ccc(-c3ccc(C(C)(C)C)cc3)nc2)nc(C(=O)NCC(=O)O)c1O",
    "UNIT_SPEC": "µM",
    "EC50": 1
  },
  {
    "COMPOUND": "CCCc1ccc(N2CCC(Cc3nc(C)c(O)c(C(=O)NCC(=O)O)n3)CC2)cc1",
    "UNIT_SPEC": "µM",
    "EC50": 1.6
  },
  {
    "COMPOUND": "CSc1nc(CC2CCN(c3ccc(C(C)(C)C)cc3)CC2)nc(C(=O)NCC(=O)O)c1O",
    "UNIT_SPEC": "µM",
    "EC50": 3
  },
  {
    "COMPOUND": "Cc1nc(CC2CCN(c3cccc(C(C)(C)C)c3)CC2)nc(C(=O)NCC(=O)O)c1O",
    "UNIT_SPEC": "µM",
    "EC50": 6.3
  }
]

Ask: Which EC50 reading was recorded for the compound `Cc1nc(CCCCC2CCN(c3ccc(C(C)(C)C)cc3)CC2)nc(C(=O)NCC(=O)O)c1O` ?
Result: 11

Ask: Query `Cc1nc(Cc2ccc(-c3ccccc3)cc2)nc(C(=O)N[C@@H](C)C(=O)O)c1O` next
Result: 14

Ask: Query `Cc1nc(CC2CCN(c3ccc(-c4ccc(C[C@H](C)O)cc4)cc3)CC2)nc(C(=O)NCC(=O)O)c1O` next
Result: 0.49

Ask: Query `CCCCc1ccc(N2CCC(Cc3nc(C)c(O)c(C(=O)NCC(=O)O)n3)CC2)cc1` next
Result: 1.6

Ask: Query Cc1nc(CC2CCN(c3ccc(-c4ccc(CC(C)O)cc4)cc3)CC2)nc(C(=O)NCC(=O)O)c1O (racemic) next
Result: 0.55

Ask: Query `Cc1nc(CC2CCN(c3ccc(Cc4ccc(C(=O)N(C)C)cc4)cc3)CC2)nc(C(=O)NCC(=O)O)c1O` next
Result: 5.8

Ask: Query `Cc1nc(CC2CCN(c3ccc(Cc4ccc(C(C)(C)CO)cc4)cc3)CC2)nc(C(=O)NCC(=O)O)c1O` next
Result: 3.2

* * *

This listing pairs molecules with measured EC50.
# MEASUREMENT_DESCRIPTION: cells
# MEASUREMENT_CONTEXT: Homo sapiens, Hep3B
Respond numerically; units are µM and should not be typed.

Please review the entries below; each comes with its answer.
[
  {
    "MOLECULE": "Cc1nc(CC2CCN(c3ccc(-c4ccc(CO)cc4)cc3)CC2)nc(C(=O)NCC(=O)O)c1O",
    "EC50, µM": 0.47
  },
  {
    "MOLECULE": "Cc1nc(CC2CCCN(c3ccc(C(C)(C)C)cc3)CC2)nc(C(=O)NCC(=O)O)c1O (centres undefined)",
    "EC50, µM": 19
  },
  {
    "MOLECULE": "Cc1nc(CCC2CCN(c3ccc(C(C)(C)C)cc3)CC2)nc(C(=O)NCC(=O)O)c1O",
    "EC50, µM": 13
  },
  {
    "MOLECULE": "Cc1nc(CC2CCN(c3ccc(C(C)(C)C)cc3)CC2)nc(C(=O)NCC(=O)O)c1O",
    "EC50, µM": 1.5
  },
  {
    "MOLECULE": "Cc1nc(CC2CCN(c3cccc(Cc4ccccc4)c3)CC2)nc(C(=O)NCC(=O)O)c1O",
    "EC50, µM": 3.9
  }
]

Ask: Which EC50 reading was recorded for the molecule Cc1nc(CC2CCN(c3ccc(C(C)(C)C)cc3)C2)nc(C(=O)NCC(=O)O)c1O (centres undefined) ?
Result: 27

Ask: Query `Cc1nc(CC2CCN(c3ccc(Cc4ccccc4)cc3)CC2)nc(C(=O)NCC(=O)O)c1O` next
Result: 0.99

Ask: Query `Cc1nc(CC2CCN(c3ccc(-c4ccccc4)cc3)CC2)nc(C(=O)NCC(=O)O)c1O` next
Result: 0.42

Ask: Query `Cc1nc(Cc2ccc(-c3ccccc3)cc2)nc(C(=O)NCC(=O)O)c1O` next
Result: 8.4

Ask: Query `Cc1nc(CC2CCN(c3ccc(Cl)cc3)CC2)nc(C(=O)NCC(=O)O)c1O` next
Result: 6.9

* * *

# MEASUREMENT_DESCRIPTION: cells
# MEASUREMENT_CONTEXT: Homo sapiens, Hep3B
This listing pairs compounds with measured pEC50.
The read-out pEC50 is expressed as -log10 of concentration in moles per litre.

Please review the entries below; each comes with its answer.
[
  {
    "QUERY_SMILES": "CCc1nc(Cc2ccc(-c3ccccc3)cc2)nc(C(=O)NCC(=O)O)c1O",
    "pEC50": 4.80
  },
  {
    "QUERY_SMILES": "Cc1nc(CC2CCN(c3ccc(-c4ccc(C(=O)N(C)C)cc4)cc3)CC2)nc(C(=O)NCC(=O)O)c1O",
    "pEC50": 6.08
  },
  {
    "QUERY_SMILES": "Cc1nc(CCCC2CCN(c3ccc(C(C)(C)C)cc3)CC2)nc(C(=O)NCC(=O)O)c1O",
    "pEC50": 4.96
  }
]

Continue with the compound presented below.
Ask: Which pEC50 reading was recorded for the compound `Cc1nc(Cc2cnc(-c3ccc(C(C)(C)C)cc3)nc2)nc(C(=O)NCC(=O)O)c1O` ?
Result: 5.72
